// values below are reported inhibition
assay: RAM pathway blockade in budding yeast – dse1pr::URA3 reporter, 5-FOA selection, pilot screen (AID 869);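 note: 0% = DMSO wells with no growth and 100% = 10 µM 1-NA-PP1 with full growth; RAM network block rescues cells from 5-FOA so hits raise OD615 growth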; details: S. cerevisiae dse1pr::URA3 5-FOA growth, OD615, 2 d; at 10 µM; stronger effect = higher value; strain carries analog-sensitive mutant Cbk1 kinase
Answer in %, number only, no unit symbol.

input: Could you share which inhibition value was measured for Cc1ccc(-c2cc3nc4c(c(=O)n3[nH]2)CCCC4)cc1 ?
output: 2.7

input: What inhibition value was documented for this compound, Cc1ccc(-n2ncc3c(=O)[nH]c(SC(C)C)nc32)cc1 ?
output: 3.35

input: Give the measured inhibition of Cc1nc(CCNC(=O)COc2ccccc2)cs1 .
output: 1.14

----------
assay: S. cerevisiae growth inhibition in permissive medium (OD615), pilot counter-assay for S. cerevisiae lifespan shortening project, permissive growth control (AID 705); settings: OD615, 24 h, at 10 µM, stronger effect = higher value
Recorded Metric: growth inhibition (%)
Numeric only. Scale: %

Answered cases to consult:
# Compound, Recorded Metric, Result Number
records = [
    ("c1ccc(N2CCN(Cc3cn4cccnc4n3)CC2)cc1", "growth inhibition", -10.3),
    ("O=C(O)CC(NC(=O)OCc1ccccc1)c1ccccc1 (stereo not given)", "growth inhibition", 2.56),
]

input: Given the compound CC1CCN(Cc2nc3c(c(=O)n(C)c(=O)n3C)n2Cc2cccc3ccccc23)CC1 , what is its reported growth inhibition?
output: -0.525

input: Fill blank: measured growth inhibition of the compound CCOC(=O)N1CCN(C(=O)CSc2nnc(Cn3c(=O)sc4ccccc43)n2C)CC1 is ____.
output: -12.9

----------
experiment: H69AR cell proliferation blockers – human, duplicate replicates, primary screen (AID 580); settings: H69AR lung tumor cells viability, ATP luminescence, 72 h; at 10 µM; stronger effect = lower value;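 note: 100% = mean luminescence of untreated wells and 0% = no signal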
The reader will find reported viability values listed item by item below.
// note: answer is a bare numeric in %

input: Quick one: viability for O=C1CC(c2ccccc2)CC(O)=C1C=NCCN1CCOCC1 (centres undefined) ?
output: 102

input: What value of viability has been reported for the following compound? Cc1onc(-c2ccccc2Cl)c1C(=O)Nc1cnn(Cc2ccccc2)c1
output: 81.5

----------
assay: MRP1 drug-resistance reversers in H69AR cells – cell-based, doxorubicin co-treatment, pilot screen (AID 601); conditions: H69AR cells + 2 uM doxorubicin, CellTiter-Glo, 72 h; measured here: viability with 2 uM doxorubicin; at 10 µM; stronger effect = lower value
compounds and their reported viability
Please reply with the bare figure in % and do not write the unit itself.

# Compound, Measure Unit, viability
measured = [
    ("CC(=O)NCCc1ccc(S(=O)(=O)NCc2ccc3c(c2)OCO3)cc1", "%", 91.3),
]

input: I'd like to know its viability. The compound in question is CC1(C)CC(=O)c2cnc(NC(=O)Cc3ccc(Cl)cc3)nc2C1
output: 89.6

input: What does the data say about its viability? Entry: CCc1ccc(N(CC(=O)NC2CCCC2)S(=O)(=O)c2c(C)noc2C)cc1
output: 80.2

input: What does the record list as viability for COc1ccccc1N1C(=O)CCC1(C#N)c1ccccc1 (stereo not drawn) ?
output: 96.9

input: So what does the record say about viability for c1ccc2c(c1)ccc1nnc(-c3ccc4c(c3)OCO4)n12 ?
output: 91.1

input: Any idea what viability was measured for COCCOC(=O)c1[nH]c2c(c1C)C(=O)CC(c1ccco1)C2 (stereo not drawn) ?
output: 60.9

input: Consider the compound shown here: O=C(Nc1ccncc1)c1cccc(F)c1 What is its recorded viability?
output: 92

input: I would be grateful if you could share the reported viability for CCn1cc(C2=NOC(C(=O)Nc3c(C)nn(Cc4ccc(F)cc4)c3C)C2)c(C)n1 (stereo not drawn) .
output: 87.1

input: Could you share which viability value was measured for CC(Sc1nc(-c2ccccc2)cc(C(F)(F)F)n1)C(=O)N1CCCC1 (stereo not drawn) ?
output: 97.3

input: Name the recorded viability for CC(=O)NC(CCS(C)(=O)=O)C(=O)Nc1cccc(C)c1 (stereo not drawn) .
output: 92.7
